measured target: Ferritin light chain (Equus caballus) (UniProt P02791)
Sequence (P02791 2-175 limits assumed): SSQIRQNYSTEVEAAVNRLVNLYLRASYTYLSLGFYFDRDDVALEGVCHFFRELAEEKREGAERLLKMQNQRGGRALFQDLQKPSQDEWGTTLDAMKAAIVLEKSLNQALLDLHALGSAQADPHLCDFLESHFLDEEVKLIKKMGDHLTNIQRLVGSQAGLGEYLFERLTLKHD
assay method text: Confirmation Assay for Identification of Novel General Anesthetics; further: potency means the concentration at half of the fitted maximal effect; nearly all actives have a fitted effect of over 40% in size
settings: apoferritin 1-aminoanthracene fluorescence displacement
Results filed as inconclusive are left out. Activity calls are given as the source filed them. The call rests on the fitted dose curve; in most records, active means well fitted inhibition curve with a large enough effect; inconclusive means small, poorly fitted or top-dose-only effect; inactive means flat fitted curve, though single readings scatter.
measured quantity: Potency

Fc1ccccc1CNc1cc(Cl)cc(Cl)c1	14.1 µM (active)
Cc1ncsc1CCOC(=O)C12CC3CC(CC(C3)C1)C2	15.8 µM (active)
O=c1sc2ccccc2c(=O)n1Cc1ccccc1F	8.91 µM (active)

Input line: Data request, read-out Potency, for Cc1cc(C)cc(Oc2ccccc2CO)c1
Output line: 14.1 µM (active)

Input line: I'd like to know its Potency. The compound in question is O=C(COC(=O)c1ccccn1)NC12CC3CC(CC(C3)C1)C2
Output line: 7.94 µM (active)

Input line: Any idea what Potency was measured for COc1ccc(-c2ccc(=O)n(CC(=O)NCc3ccco3)n2)cc1 ?
Output line: 14.1 µM (active)

Input line: Any idea what its Potency is? The compound is NS(=O)(=O)c1cccnc1Nc1cccc(C(F)(F)F)c1
Output line: 10 µM (active)

Input line: What value of measured Potency is listed for CC(C)CCNC(=O)CN1N=C(c2ccc(Cl)cc2)CCC1=O ?
Output line: 5.19 µM (active)

Input line: What does the data say about its Potency? Entry: COc1ccc(Cc2nnc(NC(=O)c3ccccc3F)s2)cc1
Output line: 25.1 µM (active)

Input line: // Potency lookup, key: Cc1csc(OCC(=O)Nc2ccc(C)c(C)c2)n1
Output line: 17.8 µM (active)

Input line: Consider the compound shown here: Nc1cc(N)nc(SCC(=O)N2CCc3ccccc32)n1 What is its recorded Potency?
Output line: 7.08 µM (active)

Input line: // Potency lookup, key: NCCOc1ccc(C23CC4CC(CC(C4)C2)C3)cc1
Output line: 11.2 µM (active)

Input line: Any idea what Potency was measured for O=C(NC1C2CC3CC(C2)CC1C3)c1ccc2c(c1)OCO2 (configuration not stated) ?
Output line: 28.2 µM (active)

Input line: # lookup: Potency of O=C1C(Cl)=C(N2CCOCC2)C(=O)N1c1ccccc1Cl
Output line: 15.8 µM (active)

Input line: Dear colleague, I am looking for the recorded Potency of the following compound: CCC(CC)C(=O)OCC(=O)NC12CC3CC(CC(C3)C1)C2
Output line: 10 µM (active)

Input line: # lookup: Potency of O=C(CSc1ccc(F)cc1)NC12CC3CC(CC(C3)C1)C2
Output line: 15.8 µM (active)

Input line: Record request: Potency value, item O=C1CC2(CCCC2)CC(=O)N1c1ccccc1
Output line: 15.8 µM (active)

Input line: GET /values?readout=Potency&item= O=C(Oc1cccc(O)c1)C1CCCCC1
Output line: 11.2 µM (active)

====

measured target: Ferritin light chain (Equus caballus) (UniProt P02791)
assay method text: Confirmation Assay for Identification of Novel General Anesthetics; further: potency means the concentration at half of the fitted maximal effect; nearly all actives have a fitted effect of over 40% in size
settings: apoferritin 1-aminoanthracene fluorescence displacement
From the text: Anesthetic development has remained a largely empirical process. There are growing concerns about the cognitive effects of known general anesthetics and acceleration of the onset of neurodegenerative disease. The compounds' toxicity and multiple specific binding targets in the mammalian brain [4] has made them less attractive as drug leads. […]
Results filed as inconclusive are left out. The source made the active and inactive calls. The call rests on the fitted dose curve; in most records, active means well fitted inhibition curve with a large enough effect; inconclusive means small, poorly fitted or top-dose-only effect; inactive means flat fitted curve, though single readings scatter.
measured quantity: Potency

CCN(CC)CC(=O)Nc1c(C)cc(C(C)(C)C)cc1C	12.6 µM (active)
O=C(CCNc1cccc(Cl)c1)c1ccco1	31.6 µM (active)
O=C(NC1CCCCC1)C(=S)NCc1ccccc1	15.8 µM (active)
Nc1cc(C(F)(F)F)ccc1Nc1ccccc1	25.1 µM (active)
O=C(NC1CCCCC1)N1CCCCCCC1	14.1 µM (active)
C=Cc1ccc(Cn2nc(-c3ccc(C)cc3)ccc2=O)cc1	17.8 µM (active)
CC1CCN(c2nc(-c3ccncc3)nc3ccccc23)CC1	39.8 µM (active)
O=C1CC(C2CCCO2)C(=O)N1c1cccc(Cl)c1 (stereo unspecified)	14.1 µM (active)

Input line: Need Potency, item Cc1cnc(C(=O)OCC(=O)NC23CC4CC(CC(C4)C2)C3)cn1
Output line: 14.1 µM (active)

Input line: May I ask what Potency has been recorded for Cc1cccc(Nc2nc(Cl)ncc2F)c1C ?
Output line: 28.2 µM (active)

Input line: Suppose we examine the compound O=C(COC(=O)c1cccs1)NCC1CCCCC1 ; what Potency value has been reported?
Output line: 20 µM (active)
